- ASSAY_NAME: Stability against DHP-I, porcine
- Type: in vitro ADME
- ASSAY_CONTEXT: pig, renal dehydropeptidase i, pH 7, 100 μg (titer)/ml, 37° C., HPLC, read-out: residual amount after 3 hours
- Protocol: The stabilities of the compounds according to the present invention against porcine and mouse renal dehydropeptidases were measured by the following method. Kidney acetone powder, Porcine Type II(Sigma; Lot. 33H7225; 1.5 g) was suspended in a 50 mM Tris.HCl buffer (pH 7.0) containing 20% butanol, and the mixture was stirred at 5° C. for 48 hours. […]
MEASURE: remaining at 3 h (%)

INSERT INTO results (molecule, quantitative_readout) VALUES
  ('C[C@@H](O)[C@H]1C(=O)N2C(C(=O)[O-])=C(c3cn4c[n+](C)cc4s3)[C@H](C)[C@H]12', 100),
  ('C[C@@H](O)[C@H]1C(=O)N2C(C(=O)O)=C(c3cn4cncc4s3)[C@H](C)[C@H]12', 87),
  ('C[C@@H](O)[C@H]1C(=O)N2C(C(=O)O)=C(c3cn4cncc4s3)C[C@H]12', 60);

(A) C[C@@H](O)[C@H]1C(=O)N2C(C(=O)O)=C(S[C@@H]3CN[C@H](C(=O)N(C)C)C3)[C@H](C)[C@H]12 [C, meropenem, reference compound]
(B) C[C@@H](O)[C@H]1C(=O)N2C(C(=O)O)=C(SCCN=CN)C[C@H]12 [Compound A, imipenem, reference compound]
Req: Consider entries A and B . Which has the numerically lower remaining at 3 h? Please identify the chosen entry by its label.
Resp: B

meta.source: patent US6310056A
